- System: HT-29 cells
- Measurement protocol: HT29 cells 0FBS assay in vitro: TNF-α/SMAC mimetic/zVAD-FMK induced necroptosis, CellTiter-Glo cell viability (RIP1 inhibitory activity)
- Type: cell-based
- Experimental parameters: Homo sapiens, FBS free medium, TNF-α (10 ng/ml) + SMAC mimetic (6 uM) + zVAD-FMK (10 μM), 20 hours, geometric mean EC50
Quantity name: EC50

In the examples that follow, each entry is paired with its recorded EC50.
# Compound, Recorded value
measured = [
    ("Cn1cccc(-c2cc(OC3CN(C(=O)N4N=CC[C@H]4c4cc(F)cc(F)c4)C3)c(F)cn2)c1=O (stereo in doubt)", "100 to 1000 nM"),
    ("Cn1ccnc1-c1cc(OC2CN(C(=O)N3N=CC[C@H]3c3cc(F)cc(C#N)c3)C2)c(F)cn1", "0.1 to 100 nM"),
    ("Cc1c(Cl)nn(C)c1-c1cc(OC2CN(C(=O)N3N=CC[C@H]3c3cc(F)cc(C#N)c3)C2)c(F)cn1", "0.1 to 100 nM"),
    ("Cc1c(C(N)=O)nn(C)c1-c1cc(OC2CN(C(=O)N3N=CC[C@H]3c3cc(F)cc(C#N)c3)C2)c(F)cn1", "0.1 to 100 nM"),
]

Per the records, this compound ( Cn1ncc(C(N)=O)c1-c1cc(OC2CN(C(=O)N3N=CC[C@H]3c3cc(F)cc(C#N)c3)C2)c(F)cn1 ) has EC50 equal to 100 to 1000 nM

Per the records, this compound ( Cc1cnn(C)c1-c1ncc(F)c(OC2CN(C(=O)N3N=CC[C@H]3c3cncc(F)c3)C2)n1 ) has EC50 equal to 0.1 to 100 nM

Per the records, this compound ( Cc1nscc1-c1cc(OC2CN(C(=O)N3N=CC[C@H]3c3cc(F)cc(C#N)c3)C2)c(F)cn1 ) has EC50 equal to 0.1 to 100 nM
